Test system: cancer cells
Test: MTT cytotoxic assay of esterification products (Cytotoxicity activity)
Assay type: cell-based, human
Settings: MTT cytotoxic assay, isolated esterification products of E4A
Outcome measure: Cytotoxicity activity

Molecule	Target system	Cytotoxicity activity
CC=C(C)C(=O)OCC12C(OC(=O)C(C)=CC)CC3(C)C(=CCC4C5(C)CCC(O)C(C)(CO)C5CCC43C)C1CC(C)(C)C(O)C2O (stereo not shown)	cancer cells	moderate
CCC(CC)C(=O)OCC1(C)C(OC(=O)C(CC)CC)CCC2(C)C1CCC1(C)C2CC=C2C3CC(C)(C)C(OC(=O)C(CC)CC)C(OC(=O)C(CC)CC)C3(COC(=O)C(CC)CC)C(O)CC21C (stereo not shown)	cancer cells	weak
CCC(CC)C(=O)OCC1(C)C(O)CCC2(C)C1CCC1(C)C2CC=C2C3CC(C)(C)C(O)C(OC(=O)C(CC)CC)C3(COC(=O)C(CC)CC)C(OC(=O)C(CC)CC)CC21C (stereo not shown)	cancer cells	weak
CC(C)=CC(=O)OCC1(C)C(O)CCC2(C)C1CCC1(C)C2CC=C2C3CC(C)(C)C(OC(=O)C=C(C)C)C(O)C3(CO)C(O)CC21C (stereo not shown)	cancer cells	moderate
C=CCCC(=O)OCC12C(O)CC3(C)C(=CCC4C5(C)CCC(O)C(C)(CO)C5CCC43C)C1CC(C)(C)C(O)C2O (stereo not shown)	cancer cells	moderate
CC(C)=CC(=O)OCC1(C)C(OC(=O)C=C(C)C)CCC2(C)C1CCC1(C)C2CC=C2C3CC(C)(C)C(O)C(O)C3(CO)C(O)CC21C (stereo not shown)	cancer cells	moderate

# next molecule below
Exercise: Please indicate Cytotoxicity activity recorded for CC=C(C)C(=O)OCC1(C)C(OC(=O)C(C)=CC)CCC2(C)C1CCC1(C)C2CC=C2C3CC(C)(C)C(O)C(O)C3(COC(=O)C(C)=CC)C(OC(=O)C(C)=CC)CC21C (stereo not shown)
Solution: weak

----------
Test system: cancer cells
Assay: MTT cytotoxic assay of esterification products (Cytotoxicity activity)
Assay type: cell-based, human
Conditions: MTT cytotoxic assay, isolated esterification products of E4A
Outcome measure: Cytotoxicity activity

Solved entries (count: 5):
Compound	Cytotoxicity activity
CC=C(C)C(=O)OCC1(C)C(OC(=O)C(C)=CC)CCC2(C)C1CCC1(C)C2CC=C2C3CC(C)(C)C(OC(=O)C(C)=CC)C(O)C3(COC(=O)C(C)=CC)C(OC(=O)C(C)=CC)CC21C (centres unmarked) [Compound A17]	weak
CCC(CC)C(=O)OCC1(C)C(OC(=O)C(CC)CC)CCC2(C)C1CCC1(C)C2CC=C2C3CC(C)(C)C(O)C(OC(=O)C(CC)CC)C3(COC(=O)C(CC)CC)C(O)CC21C (centres unmarked) [Compound E9]	weak
CCC(CC)C(=O)OCC1(C)C(O)CCC2(C)C1CCC1(C)C2CC=C2C3CC(C)(C)C(OC(=O)C(CC)CC)C(OC(=O)C(CC)CC)C3(COC(=O)C(CC)CC)C(O)CC21C (centres unmarked) [Compound E8]	weak
CC=C(C)C(=O)OCC1(C)C(O)CCC2(C)C1CCC1(C)C2CC=C2C3CC(C)(C)C(OC(=O)C(C)=CC)C(O)C3(COC(=O)C(C)=CC)C(OC(=O)C(C)=CC)CC21C (centres unmarked) [Compound A13]	weak
CC(C)=CC(=O)OCC1(C)C(O)CCC2(C)C1CCC1(C)C2CC=C2C3CC(C)(C)C(OC(=O)C=C(C)C)C(OC(=O)C=C(C)C)C3(COC(=O)C=C(C)C)C(O)CC21C (centres unmarked) [Compound B8]	weak

Exercise: Complete the entry with Cytotoxicity activity for CCC(CC)C(=O)OCC1(C)C(OC(=O)C(CC)CC)CCC2(C)C1CCC1(C)C2CC=C2C3CC(C)(C)C(O)C(OC(=O)C(CC)CC)C3(COC(=O)C(CC)CC)C(OC(=O)C(CC)CC)CC21C (centres unmarked) [Compound E18]
Solution: weak

Exercise: Answer with the recorded Cytotoxicity activity of CC(C)=CC(=O)OCC1(C)C(OC(=O)C=C(C)C)CCC2(C)C1CCC1(C)C2CC=C2C3CC(C)(C)C(O)C(O)C3(COC(=O)C=C(C)C)C(O)CC21C (centres unmarked) [Compound B6] only.
Solution: moderate

Exercise: Find the measured Cytotoxicity activity of CC(C)=CC(=O)OCC1(C)C(O)CCC2(C)C1CCC1(C)C2CC=C2C3CC(C)(C)C(O)C(O)C3(COC(=O)C=C(C)C)C(OC(=O)C=C(C)C)CC21C (centres unmarked) [Compound B7] and report it.
Solution: moderate

Exercise: Note Cytotoxicity activity for the compound shown: CC=C(C)C(=O)OCC1(C)C(OC(=O)C(C)=CC)CCC2(C)C1CCC1(C)C2CC=C2C3CC(C)(C)C(O)C(OC(=O)C(C)=CC)C3(COC(=O)C(C)=CC)C(O)CC21C (centres unmarked) [Compound A9]
Solution: weak

Exercise: Note Cytotoxicity activity for the compound shown: CC(C)=CC(=O)OCC12C(OC(=O)C=C(C)C)CC3(C)C(=CCC4C5(C)CCC(O)C(C)(CO)C5CCC43C)C1CC(C)(C)C(O)C2O (centres unmarked) [Compound B28]
Solution: moderate

----------
Test system: cancer cells
Test: MTT cytotoxic assay of esterification products (Cytotoxicity activity)
Format: cell-based, human
Settings: E4A esterified with Crotonoyl chloride (Cro = Crotonoyl), compounds isolated with HPLC
Outcome measure: Cytotoxicity activity

Molecule	Measured
CC=CC(=O)OCC1(C)C(O)CCC2(C)C1CCC1(C)C2CC=C2C3CC(C)(C)C(O)C(O)C3(CO)C(O)CC21C (stereo not drawn) [Compound I1]	moderate
CC=CC(=O)OCC1(C)C(OC(=O)C=CC)CCC2(C)C1CCC1(C)C2CC=C2C3CC(C)(C)C(OC(=O)C=CC)C(O)C3(COC(=O)C=CC)C(O)CC21C (stereo not drawn) [Compound I11]	weak
CC=CC(=O)OCC1(C)C(OC(=O)C=CC)CCC2(C)C1CCC1(C)C2CC=C2C3CC(C)(C)C(OC(=O)C=CC)C(OC(=O)C=CC)C3(COC(=O)C=CC)C(O)CC21C (stereo not drawn) [Compound I15]	weak
CC=CC(=O)OCC1(C)C(O)CCC2(C)C1CCC1(C)C2CC=C2C3CC(C)(C)C(OC(=O)C=CC)C(O)C3(CO)C(O)CC21C (stereo not drawn) [Compound I29]	moderate

Read the next record carefully.
Exercise: Give a short answer stating reported Cytotoxicity activity for CC=CC(=O)OC1C(OC(=O)C=CC)C2(CO)C(O)CC3(C)C(=CCC4C5(C)CCC(OC(=O)C=CC)C(C)(CO)C5CCC43C)C2CC1(C)C (stereo not drawn) [Compound I23] .
Solution: moderate

----------
System: cancer cells
Test: MTT cytotoxic assay of esterification products (Cytotoxicity activity)
Assay type: cell-based, human
Settings: MTT cytotoxic assay, isolated esterification products of E4A

Compound	Target system	Cytotoxicity activity
CC=C(C)C(=O)OCC1(C)C(OC(=O)C(C)=CC)CCC2(C)C1CCC1(C)C2CC=C2C3CC(C)(C)C(OC(=O)C(C)=CC)C(OC(=O)C(C)=CC)C3(COC(=O)C(C)=CC)C(O)CC21C (centres unmarked)	cancer cells	weak
CC(C)=CC(=O)OC1C(OC(=O)C=C(C)C)C2(CO)C(OC(=O)C=C(C)C)CC3(C)C(=CCC4C5(C)CCC(O)C(C)(CO)C5CCC43C)C2CC1(C)C (centres unmarked)	cancer cells	moderate
C=CCCC(=O)OCC1(C)C(OC(=O)CCC=C)CCC2(C)C1CCC1(C)C2CC=C2C3CC(C)(C)C(O)C(OC(=O)CCC=C)C3(COC(=O)CCC=C)C(O)CC21C (centres unmarked) [Compound C14]	cancer cells	weak
CC(C)=CC(=O)OC1C(OC(=O)C=C(C)C)C2(CO)C(O)CC3(C)C(=CCC4C5(C)CCC(OC(=O)C=C(C)C)C(C)(CO)C5CCC43C)C2CC1(C)C (centres unmarked)	cancer cells	moderate

----------
Tested on: ES2 cells
Experiment: Inhibition of cell adhesion, ES2
Assay type: cell-based, human
Conditions: 5 ug/ml, 5 hours
Outcome measure: ES2 cells attached to flasks compared to no drug controls (%)
Numbers only; they are read as %.

Recorded results for 3 compounds are shown here.
Compound	Measured
CC=C(C)C(=O)OCC1(C)C(O)CCC2(C)C1CCC1(C)C2CC=C2C3CC(C)(C)C(O)C(OC(=O)C(C)=CC)C3(CO)C(O)CC21C (centres unmarked)	80
CC=C(C)C(=O)OCC1(C)C(O)CCC2(C)C1CCC1(C)C2CC=C2C3CC(C)(C)C(O)C(O)C3(CO)C(O)CC21C (centres unmarked)	80
CC=C(C)C(=O)OCC1(C)C(O)CCC2(C)C1CCC1(C)C2CC=C2C3CC(C)(C)C(OC(=O)C(C)=CC)C(O)C3(COC(=O)C(C)=CC)C(O)CC21C (centres unmarked)	80

Exercise: Note down ES2 cells attached to flasks compared to no drug controls recorded for CC=C(C)C(=O)OCC1(C)C(O)CCC2(C)C1CCC1(C)C2CC=C2C3CC(C)(C)C(OC(=O)C(C)=CC)C(O)C3(CO)C(O)CC21C (centres unmarked)
Solution: 80

Exercise: State its ES2 cells attached to flasks compared to no drug controls: CC=C(C)C(=O)OCC1(C)C(O)CCC2(C)C1CCC1(C)C2CC=C2C3CC(C)(C)C(O)C(OC(=O)C(C)=CC)C3(COC(=O)C(C)=CC)C(O)CC21C (centres unmarked)
Solution: 80
